// provenance: patent US11261174B2

This listing pairs compounds with measured IC50.
- system.under.test: LPA1 (Homo sapiens)
- Sequence (Q92633 whole entry): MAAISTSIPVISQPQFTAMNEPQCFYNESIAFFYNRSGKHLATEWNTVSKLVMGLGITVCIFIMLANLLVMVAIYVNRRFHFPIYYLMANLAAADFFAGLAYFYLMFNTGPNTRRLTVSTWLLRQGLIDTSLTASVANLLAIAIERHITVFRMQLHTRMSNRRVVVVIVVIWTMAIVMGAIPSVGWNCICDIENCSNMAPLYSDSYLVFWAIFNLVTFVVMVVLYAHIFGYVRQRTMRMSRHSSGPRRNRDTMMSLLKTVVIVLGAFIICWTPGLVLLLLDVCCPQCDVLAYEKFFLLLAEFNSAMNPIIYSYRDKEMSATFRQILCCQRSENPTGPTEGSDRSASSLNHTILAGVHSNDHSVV
- assay.comment: LPA1 functional antagonist assay (LPA-induced calcium flux)
- measurement.parameters: CHO cells overexpressing human LPA1; calcium flux induced by 10 nM LPA; read-out: hLPA1 IC50
The answer is to be given in nM; state only the numeric part.

Answered cases to consult:
# compound, system.under.test, IC50 [nM]
rows = [
    ("Cc1nc(-c2cnn(C)c2COC(=O)N(C)CCC(C)C)ccc1O[C@H]1CCC[C@H](C(=O)O)C1 [Example 24]", "LPA1 (Homo sapiens)", 5),
    ("Cc1nc(-c2cnn(C)c2COC(=O)N(C)C2CCC2)ncc1O[C@H]1CCC[C@H](C(=O)O)C1 [Example 70]", "LPA1 (Homo sapiens)", 120),
    ("C[C@@H](C1CC1)N(C)C(=O)OCc1c(-c2ccc(O[C@H]3CCC[C@H](C(=O)O)C3)cc2)cnn1C [Example 57]", "LPA1 (Homo sapiens)", 192),
]

# input for lookup
IC50 reported for this compound CCCN(C)C(=O)OCc1c(-c2ccc(O[C@H]3CCC[C@H](C(=O)O)C3)c(C)n2)cnn1C [Example 12] : 54
